- target_of_assay: T1, human BMP-11 (GDF-11; R&D Systems) (human, UniProt O95390 299-407)
- T1 sequence (looked up): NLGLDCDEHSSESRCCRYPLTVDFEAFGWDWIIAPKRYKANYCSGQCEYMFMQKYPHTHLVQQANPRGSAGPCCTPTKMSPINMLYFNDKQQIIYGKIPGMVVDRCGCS
- assay_details: SPR format A, 25C
Measured Kd by item
Just the number in nM, nothing appended.

Qu. // query Kd value for entry ATI-1278 [40K 2-branch PEG] (designed binder, 40K 2-branch PEG on the Cys of the EGSGC tail, cysteine mutant of 2525_D05) MGVSDVPRDLEVVAATPTSLLISWSLPYAGHLNYYRITYGETGGNSPVQEFTVPGRGVTATISGLKPGVDYTITVYAVTLTKSQLIHYMPISINYRTEGSGCHHHHHH
Ans. 3.3

Qu. Ok, now 2062_G02 (designed binder, also called ATI-1134) MGVSDVPRDLEVVAATPTSLLISWVSPRGRARYYRITYGETGGNSPVQEFTVPGRGSTATISGLKPGVDYTITVYAVTIYRDGMSHHDPISINYRTEIDKPSQHHHHHH
Ans. 697

Continuing:
Qu. Which measured Kd value corresponds to 2525_B01 (designed binder) MGVSDVPRDLEVVAATPTSLLISWTLPNFGLINYYRITYGETGGNSPVQEFTVPGRGVTATISGLKPGVDYTITVYAVTITKSTIIIYKPISINYRTEIDKPSQHHHHHH ?
Ans. 1.58
